- Method Description: Cellular viability qHTS for adrenocortical cancer (ACC) cell line NCI-H295R (AID 1963990);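 further: 0% = DMSO only wells and -100% = full killing with cytotoxic reference compound; nearly all actives have a fitted effect of over 60% in size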
- Applied Conditions: CellTiter-Glo ATP luminescence, 48 h; series mostly up to 46.1 µM
Inconclusive results are not listed. Activity calls are given as the source filed them. The call rests on the fitted dose curve; in most records, active means well fitted cell-killing curve with a large enough effect; inconclusive means small, poorly fitted or top-dose-only effect; inactive means flat fitted curve, though single readings scatter.
Measured Parameter: activity change, negative = viability loss

{"columns": ["Item Smiles", "Obs Value"],
 "data": [
  ["CC(C)(S)[C@@H](N)C(=O)O", "-1.21% [at 3.81 µM] (inactive)"],
  ["CN[C@@H](C)[C@H]1[C@H](O)C[C@@]2(C)[C@@H]3CC[C@H]4C(C)(C)[C@@H](NC)CC[C@@]45C[C@@]35CC[C@]12C", "-14.8% [at 9.17 µM] (inactive)"],
  ["CCCCCCCCCCOc1cc2c(=O)c(C(=O)OCC)c[nH]c2cc1OCC", "-5.4% [at 3.81 µM] (inactive)"],
  ["Cn1c(CNc2ccc(C(=N)N)cc2)nc2cc(C(=O)N(CCC(=O)O)c3ccccn3)ccc21", "15.5% [at 0.587 µM] (inactive)"],
  ["C[C@@H]1CC[C@@]2(OC1)O[C@H]1C[C@H]3[C@@H]4CC[C@H]5C[C@@H](O)CC[C@]5(C)[C@H]4CC(=O)[C@]3(C)[C@H]1[C@@H]2C", "-14.3% [at 3.81 µM] (inactive)"],
  ["NC(N)=NCCN1CCCCCCC1", "7.14% [at 0.587 µM] (inactive)"],
  ["CCn1cc(C(=O)O)c(=O)c2cnc(N3CCCC3)nc21", "-14.1% [at 9.17 µM] (inactive)"]
]}

----------
- Method Description: Quantitative highthroughput screen to assess conditional lethalithy of NOMO1 cells grown in Human Plasma-Like Medium with dialyzed fetal bovine serum (HPLM+ds) (AID 1963878); further: nearly all actives have a fitted effect of over 35% in size; further: potency means the concentration at half of the fitted maximal effect;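 on viability: 100% = DMSO wells and 0% = empty wells on each plate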
- Applied Conditions: NOMO1 AML cells in HPLM+ds, CellTiter-Glo viability, 48 h; series mostly up to 45.8 µM
Records with an inconclusive call do not appear. The source made the active and inactive calls. Calls follow the shape of the dose curve; as a rule, active = well fitted cell-killing curve with a large enough effect; inconclusive = small, poorly fitted or top-dose-only effect, or effect the other way; inactive = no such curve, though single readings can be large or run the other way.
Measured Parameter: Potency

{"columns": ["Compound", "Obs Value"],
 "data": [
  ["Cc1nc(Nc2n[nH]c3c2CN(C(=O)N[C@H](CN(C)C)c2ccccc2)C3(C)C)c2sccc2n1", "1.48 µM (active)"],
  ["COc1ccc2c3c1OC1C[C@@H](O)C=C[C@@]31CCN(C)C2 (some centres undefined)", "inactive"],
  ["C#CCN(C)CC1=Cc2ccccc2Oc2ccccc21", "inactive"],
  ["CN1CCN(Cc2ccc(NC(=O)Nc3ccc(Oc4cc(NC(=O)C5CC5)ncn4)cc3)cc2C(F)(F)F)CC1", "0.372 µM (active)"],
  ["CC1(C)O[C@@H]2C[C@H]3[C@@H]4CCC5=CC(=O)C=C[C@]5(C)[C@@H]4[C@@H](O)C[C@]3(C)[C@]2(C(=O)CO)O1", "inactive"],
  ["N#Cc1ccc(C(c2ccc(C#N)cc2)n2cncn2)cc1", "inactive"],
  ["CNS(=O)(=O)Cc1ccc2[nH]cc(CCN(C)C)c2c1", "inactive"],
  ["Nc1ccn([C@H]2CC[C@@H](CO)O2)c(=O)n1", "23.5 µM (active)"],
  ["CNC(=O)c1ccccc1Sc1ccc2c(C=Cc3ccccn3)n[nH]c2c1", "4.18 µM (active)"],
  ["Nc1nc(N)c2nc(-c3cccc(O)c3)c(-c3cccc(O)c3)nc2n1", "10.5 µM (active)"],
  ["COc1cc(O)c2c(c1)C(=O)c1cc(C)cc(O)c1C2=O", "9.11 µM (active)"],
  ["CCc1cncnc1N1CCN(Cc2nc3ccc(C(F)(F)F)cc3[nH]2)CC1", "inactive"],
  ["CCC(C)(Oc1ccc(C2(c3ccc(OC(C)(CC)C(=O)O)cc3)CCCCC2)cc1)C(=O)O (centres undefined)", "inactive"],
  ["Cc1cn([C@@H]2O[C@H](CO)[C@@H](O)[C@H]2F)c(=O)[nH]c1=O", "inactive"],
  ["Cn1cc(-c2ccncc2)c(-c2ccc(OCc3ccc4ccccc4n3)cc2)n1", "inactive"],
  ["COc1cc(Nc2ncc(F)c(Nc3ccc4c(n3)NC(=O)C(C)(C)O4)n2)cc(OC)c1OC", "4.69 µM (active)"],
  ["CCC(CC)[C@H](NC(C)=O)[C@@H]1[C@H](O)[C@@H](C(=O)O)C[C@@H]1N=C(N)N", "inactive"],
  ["CCCCCCCc1ccc(CCc2cccc(O)c2C(=O)O)cc1", "inactive"],
  ["COc1ccc(C2=N[C@H](c3ccc(Cl)cc3)[C@H](c3ccc(Cl)cc3)N2C(=O)N2CCNC(=O)C2)c(OC(C)C)c1", "10.5 µM (active)"],
  ["CN(C)CCc1c[nH]c2ccc(Cn3cncn3)cc12", "0.833 µM (active)"],
  ["CC(=O)Oc1cc2c(s1)CCN(C(C(=O)C1CC1)c1ccccc1F)C2 (centres undefined)", "4.69 µM (active)"],
  ["S=C(NCc1ccc2c(c1)OCO2)N1CCN(c2ncnc3c2oc2ccccc23)CC1", "38.2 µM (active)"],
  ["O=c1cc(-c2ccccc2)oc2cc(O)c(O)c(O)c12", "inactive"],
  ["CC1(C)Cc2c(sc(NC(=S)NC(=O)c3ccccc3)c2C(=O)O)CO1", "inactive"],
  ["CC(C)NCC(O)COc1ccc(COCCOC(C)C)cc1 (centres undefined)", "inactive"],
  ["COc1cc(C(C)C)c(Oc2cnc(NC(CO)CO)nc2N)cc1I", "inactive"],
  ["Cc1ccccc1-n1c(Cn2nc(-c3cccc(O)c3)c3c(N)ncnc32)nc2cccc(C)c2c1=O", "1.66 µM (active)"],
  ["C[C@@H]1C(=O)O[C@H]2CC34[C@H]5C[C@@H](C(C)(C)C)C36[C@H](OC(=O)[C@@H]6O)O[C@@]4(C(=O)O5)[C@]21O (some centres undefined)", "inactive"],
  ["Nc1cc(C(Cl)=C(Cl)Cl)c(S(N)(=O)=O)cc1S(N)(=O)=O", "1.87 µM (active)"],
  ["CCCCCCCCCCCCCCCCCCCCCCO", "inactive"],
  ["C[C@H]1c2cccc(O)c2C(O)=C2C(=O)[C@]3(O)C(O)=C(C(N)=O)C(=O)[C@@H](N(C)C)[C@@H]3[C@@H](O)[C@@H]21", "inactive"],
  ["C[C@@H](CN1CC(=O)NC(=O)C1)N1CC(=O)NC(=O)C1", "0.148 µM (active)"],
  ["Cc1cc(Nc2cc(N3CCN(C)CC3)nc(C=Cc3ccccc3)n2)n[nH]1", "3.03 µM (active)"],
  ["O=C1CCCC2=C1C(c1[nH]ncc1Cl)N=C(Nc1nc3ccccc3o1)N2 (centres undefined)", "18.7 µM (active)"],
  ["C[C@](Cc1c[nH]c2ccccc12)(NC(=O)OC1C2CC3CC(C2)CC1C3)C(=O)NC[C@H](NC(=O)CCC(=O)O)c1ccccc1 (some centres undefined)", "inactive"],
  ["CN(C1CCc2c(c3ccccc3n2CC(=O)O)C1)S(=O)(=O)c1ccc(F)cc1 (centres undefined)", "5.9 µM (active)"],
  ["CC1(C)S[C@H]2[C@H](NC(=O)[C@@H](N)c3ccc(O)cc3)C(=O)N2[C@@H]1C(=O)O", "5.26 µM (active)"],
  ["CC(C(C)N1CC(=O)NC(=O)C1)N1CC(=O)NC(=O)C1 (centres undefined)", "inactive"],
  ["C[C@@H](NC(=O)c1ncnc(N)c1Cl)c1ncc(C(=O)Nc2cc(C(F)(F)F)c(Cl)cn2)s1", "16.6 µM (active)"]
]}

----------
- Method Description: Cellular viability qHTS for adrenocortical cancer (ACC) cell line SW-13 (AID 1963989);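 further: cells grown in serum-free medium with ITS supplement; on the % scale 0 is the no-effect control and ±100 the full control effect; nearly all actives have a fitted effect of over 65% in size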
- Applied Conditions: SW-13 ACC cells viability, CellTiter-Glo, 48 h; hits give low values
Results filed as inconclusive are left out. *1 amine or outer side, *2 acyl side, *3 side chain or, on linkers, in order; H or OH if unused. Where a SMILES comes first, the peptide text is derived from it. Bridges are numbered along the chain shown (N, C = ends). [ ]: non-standard residue; d: D form. The star is where a group is joined. ξ: configuration not given here. ΔAla(3-NHCONH2) = NC(=O)NC=C(N)C(=O)O; X2 = NC1=NCCC(C(N[*:1])C(=O)[*:2])N1; ξβ3hOrn = NCCCC(N)CC(=O)*; Dap = NC[CH](N)C(=O)O

{"columns": ["Compound", "Measure Unit", "activity (max response)"],
 "data": [
  ["NCCCC(N)CC(=O)NCC1NC(=O)C(CO)NC(=O)C(N)CNC(=O)C(C2CCN=C(N)N2)NC(=O)C(=CNC(N)=O)NC1=O (stereo not drawn) (H-[Dap]S[Dap](ξβ3hOrn)[ΔAla(3-NHCONH2)][X2]; lactam 1-C; configuration not given here)", "%", -2.59],
  ["O=C(O)CCCC[C@@H]1SC[C@@H]2NC(=O)N[C@@H]21", "%", -0.523],
  ["C=C1[C@H](OC(=O)/C=C(\\C)CC)C[C@@H](C(C)C)[C@@H]2[C@H]([C@@H](C)OC(C)=O)C(=O)C[C@@H]12", "%", 6.72],
  ["OC1(c2ccccc2)CCNCC1", "%", 4.15],
  ["CCCCCCCC(=O)OCC(O)CO (stereo not given)", "%", -7.07],
  ["CC[N+](C)(CC)CCOC(=O)C1c2ccccc2Oc2ccccc21", "%", -11.3],
  ["O=C(CN1CCNCC1)NC1CCCCC1", "%", -8.69],
  ["Nc1c(I)cc(I)c(C(=O)N(CCC(=O)O)c2ccccc2)c1I", "%", -3.73],
  ["O=S(=O)(O)c1ccc(O)cc1", "%", 11.9],
  ["CC(=O)NC(CS)C(=O)O (stereo not given)", "%", -2.17]
]}
